Target of assay: extracellular domain of human Uvomorulin/E-Cadherin (Homo sapiens)
Construct: the approximately 80 kD extracellular domain of Uvomorulin/E-Cadherin provided in the E-cadherin EIA kit; purchased Zymed Laboratories, San Francisco, CA
Sequence (P12830 155-709 limits assumed): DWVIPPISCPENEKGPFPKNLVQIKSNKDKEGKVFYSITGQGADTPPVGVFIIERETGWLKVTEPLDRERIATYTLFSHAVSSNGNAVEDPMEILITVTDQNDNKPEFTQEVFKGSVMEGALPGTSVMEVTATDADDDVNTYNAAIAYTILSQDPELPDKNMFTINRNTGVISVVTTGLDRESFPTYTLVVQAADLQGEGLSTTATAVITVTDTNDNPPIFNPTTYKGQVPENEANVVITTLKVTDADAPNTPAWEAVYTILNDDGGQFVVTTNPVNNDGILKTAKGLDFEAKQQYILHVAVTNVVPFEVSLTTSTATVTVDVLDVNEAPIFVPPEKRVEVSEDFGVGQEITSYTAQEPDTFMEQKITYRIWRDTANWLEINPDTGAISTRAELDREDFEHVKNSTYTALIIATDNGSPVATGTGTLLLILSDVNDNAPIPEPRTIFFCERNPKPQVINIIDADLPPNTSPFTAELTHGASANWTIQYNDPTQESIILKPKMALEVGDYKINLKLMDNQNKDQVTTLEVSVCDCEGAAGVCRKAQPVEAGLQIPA
Experimental details: Human E-cadherin EIA kit: competition with Mab binding to the extracellular domain of E-cadherin
Settings: agent 4 mM; Mab binding vs vehicle control = 100
Value type: % Binding (%)

compound="O=S(=O)(O)OC[C@H]1O[C@@](COS(=O)(=O)O)(O[C@H]2O[C@H](COS(=O)(=O)O)[C@@H](OS(=O)(=O)O)[C@H](OS(=O)(=O)O)[C@H]2OS(=O)(=O)O)[C@@H](OS(=O)(=O)O)[C@@H]1OS(=O)(=O)O [SOS, sucrose octasulfate]" test_result=83
compound=O=S(=O)(O)c1cccc(S(=O)(=O)O)c1 test_result=104
compound="O=S(=O)(O)OCC(OS(=O)(=O)O)C(Oc1ccc(N=C=S)cc1)c1ccc(N=C=S)cc1 (centres unmarked)" test_result=38
compound=CC(=O)Nc1ccc(C=Cc2ccc(N=C=S)cc2S(=O)(=O)O)c(S(=O)(=O)O)c1 test_result=26
compound="O=S(=O)(O)OCC(OS(=O)(=O)O)C(Oc1ccccc1)c1ccc(N=C=S)cc1 (centres unmarked)" test_result=77
